Below, each entry is listed with its recorded remaining at 16 h.
Assay: in vitro
Conditions: both, human, plasma
Non-standard residues stand in square brackets, D forms with d. Residues, ends and D or L forms follow the SMILES beside them. NMeY = CN[C@@H](Cc1ccc(O)cc1)C(=O)O; NMeL = CN[C@@H](CC(C)C)C(=O)O

compound: CC(C)C[C@@H]1NC(=O)[C@@H](CC(C)C)NC(=O)[C@H](CC(C)C)NC(=O)[C@H](Cc2ccc(O)cc2)N(C)C(=O)[C@H]2CCCN2C(=O)[C@H](CC(C)C)NC1=O [10j] (cyclo(LL[dP][NMeY]L[dL]))
remaining at 16 h [%]: 38

compound: CC(C)C[C@@H]1NC(=O)[C@@H](CC(C)C)NC(=O)[C@H](CC(C)C)N(C)C(=O)[C@H](Cc2ccc(O)cc2)NC(=O)[C@H]2CCCN2C(=O)[C@H](CC(C)C)NC1=O [10k] (cyclo(LL[dP]Y[NMeL][dL]))
remaining at 16 h [%]: 39

compound: CC(C)C[C@@H]1NC(=O)[C@H](Cc2ccc(O)cc2)NC(=O)[C@H]2CCCN2C(=O)[C@H](CC(C)C)NC(=O)[C@H](CC(C)C)N(C)C(=O)[C@@H](CC(C)C)NC1=O [10h] (cyclo(L[dL][NMeL]L[dP]Y))
remaining at 16 h [%]: 56

----------
Below, each entry is listed with its recorded remaining at 4 h.
Biological target: pepsin (Sus scrofa, UniProt P00791)
Sequence (P00791 60-385): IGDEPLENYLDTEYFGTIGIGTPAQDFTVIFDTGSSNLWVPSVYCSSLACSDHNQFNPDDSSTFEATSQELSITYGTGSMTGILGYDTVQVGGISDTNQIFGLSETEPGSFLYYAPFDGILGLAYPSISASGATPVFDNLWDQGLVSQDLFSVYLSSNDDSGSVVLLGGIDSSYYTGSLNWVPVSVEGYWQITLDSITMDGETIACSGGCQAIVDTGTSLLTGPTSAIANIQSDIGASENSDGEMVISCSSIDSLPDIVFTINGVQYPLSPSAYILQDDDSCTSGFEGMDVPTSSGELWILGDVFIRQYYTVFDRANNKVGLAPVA
Assay: in vitro
Settings: simulated gastric fluid, pH 1.2
Starred links: 1 amine or outer side, 2 acyl side, 3 side chain; linkers in the order of their positions; H or OH if unused. Non-standard residues stand in square brackets, D forms with d. Residues, ends and D or L forms follow the SMILES beside them. X1 = CC(C)C[C@H](NC(=S)[C@H](Cc1ccc(O)cc1)N[*:1])C(=O)[*:2]; X6 = O=C([C@H](Cc1ccc(O)cc1)NC(=S)[C@H]1CCCN1[*:1])[*:2]; X2 = CC(C)C[C@H](NC(=S)[C@@H](CC(C)C)N[*:1])C(=O)[*:2]; X3 = CC(C)C[C@H](N[*:1])C(=S)N[C@H](CC(C)C)C(=O)[*:2]; X5 = CC(C)C[C@H](NC(=S)[C@H](CC(C)C)N[*:1])C(=O)[*:2]; X4 = CC(C)C[C@H](N[*:1])C(=S)N1CCC[C@@H]1C(=O)[*:2]; NMeL = CN[C@@H](CC(C)C)C(=O)O; dNMeL = CN[C@H](CC(C)C)C(=O)O

molecule: CC(C)C[C@@H]1NC(=O)[C@H](Cc2ccc(O)cc2)NC(=O)[C@H]2CCCN2C(=O)[C@H](CC(C)C)NC(=O)[C@H](CC(C)C)NC(=S)[C@@H](CC(C)C)NC1=O [10a] (cyclo(L[dP]YL[X2]))
target-or-system: pepsin (Sus scrofa, UniProt P00791)
remaining at 4 h (%): 31
--
molecule: CC(C)C[C@@H]1NC(=O)[C@@H](CC(C)C)NC(=S)[C@H](CC(C)C)NC(=O)[C@H](Cc2ccc(O)cc2)NC(=O)[C@H]2CCCN2C(=O)[C@H](CC(C)C)NC1=O [10f] (cyclo(LL[dP]Y[X3]))
target-or-system: pepsin (Sus scrofa, UniProt P00791)
remaining at 4 h (%): 34
--
molecule: CC(C)C[C@@H]1NC(=O)[C@H](Cc2ccc(O)cc2)NC(=O)[C@H]2CCCN2C(=S)[C@H](CC(C)C)NC(=O)[C@H](CC(C)C)NC(=O)[C@@H](CC(C)C)NC1=O [10c] (cyclo(L[dL]L[X4]Y))
target-or-system: pepsin (Sus scrofa, UniProt P00791)
remaining at 4 h (%): 19
--
molecule: CC(C)C[C@@H]1NC(=O)[C@H](Cc2ccc(O)cc2)NC(=O)[C@H]2CCCN2C(=O)[C@H](CC(C)C)NC(=S)[C@H](CC(C)C)NC(=O)[C@@H](CC(C)C)NC1=O [10b] (cyclo(L[dL][X5][dP]Y))
target-or-system: pepsin (Sus scrofa, UniProt P00791)
remaining at 4 h (%): 23
--
molecule: CC(C)C[C@@H]1NC(=O)[C@H](Cc2ccc(O)cc2)NC(=O)[C@H]2CCCN2C(=O)[C@H](CC(C)C)NC(=O)[C@H](CC(C)C)N(C)C(=O)[C@@H](CC(C)C)NC1=O [10h] (cyclo(L[dL][NMeL]L[dP]Y))
target-or-system: pepsin (Sus scrofa, UniProt P00791)
remaining at 4 h (%): 16
--
molecule: CC(C)C[C@@H]1NC(=O)[C@@H](CC(C)C)NC(=O)[C@H](CC(C)C)NC(=S)[C@H](Cc2ccc(O)cc2)NC(=O)[C@H]2CCCN2C(=O)[C@H](CC(C)C)NC1=O [10e] (cyclo(LL[dP][X1][dL]))
target-or-system: pepsin (Sus scrofa, UniProt P00791)
remaining at 4 h (%): 49
--
molecule: CC(C)C[C@@H]1NC(=O)[C@H](Cc2ccc(O)cc2)NC(=S)[C@H]2CCCN2C(=O)[C@H](CC(C)C)NC(=O)[C@H](CC(C)C)NC(=O)[C@@H](CC(C)C)NC1=O [10d] (cyclo(LL[X6]L[dL]))
target-or-system: pepsin (Sus scrofa, UniProt P00791)
remaining at 4 h (%): 21
--
molecule: CC(C)C[C@@H]1NC(=O)[C@@H](CC(C)C)N(C)C(=O)[C@H](CC(C)C)NC(=O)[C@H](Cc2ccc(O)cc2)NC(=O)[C@H]2CCCN2C(=O)[C@H](CC(C)C)NC1=O [10g] (cyclo(LL[dP]YL[dNMeL]))
target-or-system: pepsin (Sus scrofa, UniProt P00791)
remaining at 4 h (%): 0
